Values were extracted from ChEMBL document CHEMBL4270594.

Listed next: entries and their corresponding pIC50.
# Tested on: HepG2
# TEST METHOD NOTES: Cytotoxicity against human HepG2 cells after 48 hrs by MTT assay
# Format: functional, cell-based
# STATED CONDITIONS: HepG2, 48 h
pIC50: −log10 of the molar value.

Example cases with answers are listed next.
> print(dat)
                         structure.notation  measurement.target  test.value
1  Cc1ccc2[nH]c(=O)c(-c3nc4cc(Cl)ccc4[nH]3)cc2c1               HepG2        4.58
2  Cc1cc2nc(-c3cc4ccccc4[nH]c3=O)[nH]c2cc1C               HepG2      < 4.00

Just so you know, measured pIC50 for `COc1ccc2[nH]c(=O)c(-c3nc4cc(Cl)ccc4[nH]3)cc2c1` came out at < 4.00

Just so you know, measured pIC50 for `Cc1ccc2[nH]c(=O)c(-c3nc4cc(C)c(C)cc4[nH]3)cc2c1` came out at < 4.00

Just so you know, measured pIC50 for `Cc1cc2nc(-c3cc4cc5c(cc4[nH]c3=O)OCO5)[nH]c2cc1C` came out at 4.73

Just so you know, measured pIC50 for `O=c1[nH]c2cc3c(cc2cc1-c1nc2cc([N+](=O)[O-])ccc2[nH]1)OCO3` came out at < 4.00

Just so you know, measured pIC50 for `Cc1ccc2[nH]c(=O)c(-c3nc4ccccc4[nH]3)cc2c1` came out at < 4.00

Just so you know, measured pIC50 for `COc1ccc2[nH]c(=O)c(-c3nc4cc(C)c(C)cc4[nH]3)cc2c1` came out at < 4.00
